Just for reference, ChEMBL document CHEMBL3352586 is where these values come from.

test: Kinetic solubility of the compound at 10 mg/ml at pH 6.5 by nephelometry; assay type: physicochemical; settings: buffer, read-out: Kinetic_solubility
readoutName: solubility kinetic (µg/mL)

Examples from the recorded data:
{"chemicalString": "Cc1ccccc1C(=O)Nc1ccc(F)cn1", "solubility kinetic [µg/mL]": 25}
{"chemicalString": "Cc1ccccc1C(=O)Nc1ncccn1", "solubility kinetic [µg/mL]": 6.3}
{"chemicalString": "Cc1ccccc1C(=O)Nc1cc(Cl)ccn1", "solubility kinetic [µg/mL]": 12.5}
{"chemicalString": "Cc1c(C(=O)Nc2ccccn2)ccc(F)c1F", "solubility kinetic [µg/mL]": 25}
{"chemicalString": "Cc1ccnc(NC(=O)c2ccccc2C)c1", "solubility kinetic [µg/mL]": 25}

a. Cc1ccccc1C(=O)Nc1ccc(C#N)cn1
b. COc1ccc(NC(=O)c2ccccc2C)nc1
c. Cc1c(F)cccc1C(=O)Nc1ccccn1
Asked: Sort the 3 compounds by solubility kinetic; largest first, smallest last. Provide the labels, sequenced as the question asks.
Given back: c, b, a

a. Cc1c(F)cccc1C(=O)Nc1cc(Cl)ccn1
b. Cc1ccnc(NC(=O)c2cccc(F)c2C)c1
Asked: Compare reported solubility kinetic values for a and b . Which is lower? Indicate which entry you chose by stating its label.
Given back: a
(a: 12.5 µg/mL, b: 25 µg/mL)
